# Target: UniProtKB P0DMS8
# Assay Explanation: functional cAMP (HTRF) assay, recombinant CHO cells expressing human A3 receptor, forskolin, agonist IB-MECA
pIC50: −log10 of the molar value.
Experimental Endpoint: pIC50

# example entries with known answers
| Compound | Experimental Endpoint | Test Result |
| --- | --- | --- |
| COc1ccc(-c2cnn(C)c2)c2nc(NC(=O)c3ccnc(N4CC[C@](C)(O)C4)c3)[nH]c12 | pIC50 | > 6.00 |
| COCCC1CCN(C(=O)Nc2nc3c(-c4cnn(C)c4)ccc(OC)c3[nH]2)C1 (stereo not drawn) | pIC50 | < 6.00 |
| COc1ccc(-c2ccccc2)c2[nH]c(NC(=O)c3ccc(C(=O)NCCO)cc3)nc12 | pIC50 | > 6.00 |
| COc1ccc(-c2ccccc2)c2nc(NC(=O)c3c[nH]cn3)[nH]c12 | pIC50 | > 6.00 |

Given the compound COc1ccc(N2CCOCC2)c2nc(NC(=O)c3ccc(Cn4ccnc4)cc3)[nH]c12 , what is its reported pIC50?
< 6.00

Fill blank: measured pIC50 of the compound COc1ccc(-c2ccccc2)c2nc(NC(=O)N3CCC4(CCOCC4)C3)[nH]c12 is ____.
< 6.00

----------
Reported pIC50 values for a set of compounds
# Target: human A3 receptor (Homo sapiens, UniProt P0DMS8)
# Sequence (P0DMS8 whole entry): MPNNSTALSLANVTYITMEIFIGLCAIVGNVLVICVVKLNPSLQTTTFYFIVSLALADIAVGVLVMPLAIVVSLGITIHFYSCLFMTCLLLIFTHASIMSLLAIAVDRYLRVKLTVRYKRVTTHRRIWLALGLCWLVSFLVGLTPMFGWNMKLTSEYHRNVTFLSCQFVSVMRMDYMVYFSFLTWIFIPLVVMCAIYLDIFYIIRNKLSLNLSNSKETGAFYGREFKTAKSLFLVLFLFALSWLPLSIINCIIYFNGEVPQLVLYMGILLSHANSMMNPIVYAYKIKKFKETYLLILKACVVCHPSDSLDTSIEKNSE
# Assay Explanation: functional cAMP (HTRF) assay, recombinant CHO cells expressing human A3 receptor, forskolin, agonist IB-MECA
# Experimental: The functional activities of human A2A, A2B, A1 and A3 receptors were determined by quantification of cAMP, being the second messenger for adenosine receptors. […] Cells were seeded into 384-well plates, forskolin, test compounds and agonists (CPA for A1- and IB-MECA for A3-receptor) were added. After 30 min incubation, HTRF reagents (cAMP dynamic 2, Cis Bio) were added and the cellular cAMP levels were determined using the ENVISION (Perkin Elmer) plate reader. […]
pIC50: −log10 of the molar value.

Use the examples below as a reference point.
| Compound | Target | pIC50 |
| --- | --- | --- |
| COc1ccc(-c2cnn(C)c2)c2nc(NC(=O)NCc3nccs3)[nH]c12 | human A3 receptor (Homo sapiens, UniProt P0DMS8) | < 6.00 |
| COc1ccc(C2CCOCC2)c2nc(NC(=O)c3ccnc(N4CC[C@]5(CCOC5)C4)c3)[nH]c12 | human A3 receptor (Homo sapiens, UniProt P0DMS8) | > 6.00 |
| COc1ccc(-c2ccccc2)c2nc(NC(=O)c3ccc(F)cc3)[nH]c12 | human A3 receptor (Homo sapiens, UniProt P0DMS8) | > 8.00 |
| COc1ccc(-c2ccccc2)c2nc(NC(=O)c3ccc(C(=O)N(C)C)cn3)[nH]c12 | human A3 receptor (Homo sapiens, UniProt P0DMS8) | < 6.00 |

Find pIC50 (human A3 receptor (Homo sapiens, UniProt P0DMS8)) for the entry COc1ccc(-c2cnn(C)c2)c2nc(NC(=O)C3CNC(=O)C3)[nH]c12 (stereo not drawn)
< 6.00

// fetch human A3 receptor (Homo sapiens, UniProt P0DMS8) pIC50 for COc1ccc(C2CCCCC2)c2nc(NC(=O)c3ccnc(N4CCOCC4)c3)[nH]c12
> 6.00

----------
# Target: human A1 receptor (Homo sapiens, UniProt P30542)
# Sequence (P30542 1-326): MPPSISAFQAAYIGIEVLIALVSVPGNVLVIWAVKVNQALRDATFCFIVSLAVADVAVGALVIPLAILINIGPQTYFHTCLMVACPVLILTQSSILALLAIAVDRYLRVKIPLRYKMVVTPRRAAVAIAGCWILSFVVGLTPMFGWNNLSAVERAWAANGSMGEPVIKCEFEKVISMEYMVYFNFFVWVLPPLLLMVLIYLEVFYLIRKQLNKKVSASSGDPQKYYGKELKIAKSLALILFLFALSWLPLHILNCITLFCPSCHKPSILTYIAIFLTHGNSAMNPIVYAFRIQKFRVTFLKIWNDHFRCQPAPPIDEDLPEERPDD
# Assay Explanation: functional cAMP (HTRF) assay, recombinant CHO cells expressing human A1 receptor, forskolin, agonist CPA
Experimental Endpoint: IC50

The cases that follow already have their IC50 on record.
| Structure Smiles String | Target | Test Result |
| --- | --- | --- |
| COc1ccc(-c2cnn(C)c2)c2nc(NC(=O)c3ccc(OC(F)(F)F)cc3)[nH]c12 | human A1 receptor (Homo sapiens, UniProt P30542) | > 1000 nM |
| COc1ccc(-c2ccccc2)c2nc(NC(=O)c3ccc(C(=O)N(C)C)cn3)[nH]c12 | human A1 receptor (Homo sapiens, UniProt P30542) | > 1000 nM |

Query: IC50; subject: COCCOCCn1cc(-c2ccc(OC)c3nc(NC(=O)N4CCC(C)(O)CC4)[nH]c23)cn1
> 1000 nM

Which value of IC50 has been reported for COc1ccc(-c2cccc(F)c2)c2nc(NC(=O)N3CCC(C)(O)CC3)[nH]c12 in the records?
< 1000 nM

GET /values?readout=IC50&item= CCCC1(c2ccc(OC)c3[nH]c(NC(=O)c4cnn(C)c4)nc23)CC1
> 1000 nM

----------
# Target: UniProt:P29274
# Sequence (P29274 whole entry): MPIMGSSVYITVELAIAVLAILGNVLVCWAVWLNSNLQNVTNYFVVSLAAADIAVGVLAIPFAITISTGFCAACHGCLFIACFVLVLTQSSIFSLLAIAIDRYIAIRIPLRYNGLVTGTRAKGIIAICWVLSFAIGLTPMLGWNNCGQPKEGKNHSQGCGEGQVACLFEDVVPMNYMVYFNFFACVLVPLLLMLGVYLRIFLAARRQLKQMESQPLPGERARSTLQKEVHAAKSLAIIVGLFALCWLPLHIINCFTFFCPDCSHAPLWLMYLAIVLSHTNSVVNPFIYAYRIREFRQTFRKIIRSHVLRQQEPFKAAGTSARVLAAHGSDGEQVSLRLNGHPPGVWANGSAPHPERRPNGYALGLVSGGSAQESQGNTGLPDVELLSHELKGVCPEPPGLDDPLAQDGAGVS
# Assay Explanation: functional cAMP (HTRF) assay, recombinant HEK293 cells expressing human A2A receptor, agonist NECA
Measured IC50 of individual entries

Before answering, review these 2 worked examples.
| Compound | IC50 |
| --- | --- |
| CCNCc1ccc(C(=O)Nc2nc3c(-c4ccccc4)ccc(OC)c3[nH]2)cc1 [compound 11] | < 0.01 µM |
| COc1ccc(-c2ccc(F)cc2)c2nc(NC(=O)c3ccc(N4C(=O)CCC4=O)cc3)[nH]c12 [compound 317] | < 0.01 µM |

Next, consider the following compound.
Under UniProt:P29274: IC50 value of COCCn1cc(C(=O)Nc2nc3c(-c4cccc5cc[nH]c45)ccc(OC)c3[nH]2)cn1 [compound 304] ?
< 0.1 µM

----------
Reported IC50 values for the following compounds.
# Target: A2B receptors (Homo sapiens, UniProt P29275)
# Sequence (P29275 1-332): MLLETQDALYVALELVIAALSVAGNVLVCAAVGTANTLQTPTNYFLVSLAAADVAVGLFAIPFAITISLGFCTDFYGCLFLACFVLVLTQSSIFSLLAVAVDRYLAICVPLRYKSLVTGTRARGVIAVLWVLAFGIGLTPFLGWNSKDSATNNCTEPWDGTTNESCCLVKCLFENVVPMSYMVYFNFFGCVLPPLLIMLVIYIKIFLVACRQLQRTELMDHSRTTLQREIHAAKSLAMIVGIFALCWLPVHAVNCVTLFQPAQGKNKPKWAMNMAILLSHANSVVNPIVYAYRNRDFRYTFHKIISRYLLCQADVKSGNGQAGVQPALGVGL
# Assay Explanation: functional cAMP (HTRF) assay, recombinant HEK293 cells expressing human A2B receptor, agonist NECA

Use the examples below as a reference point.
| Compound | Target | Test Result |
| --- | --- | --- |
| COc1ccc(-c2ccccc2)c2nc(NC(=O)c3cnn(C)c3)[nH]c12 | A2B receptors (Homo sapiens, UniProt P29275) | < 0.01 µM |
| CCCN(C)C(=O)c1ccc(C(=O)Nc2nc3c(OC)ccc(-c4ccccc4)c3[nH]2)cc1 | A2B receptors (Homo sapiens, UniProt P29275) | < 0.1 µM |
| COc1ccc(-c2cnn(C)c2)c2nc(NC(=O)c3ccnc(Br)c3)[nH]c12 | A2B receptors (Homo sapiens, UniProt P29275) | < 1 µM |
| COc1ccc(-c2cnn(C)c2)c2nc(NC(=O)c3ccc4c(c3)CCO4)[nH]c12 | A2B receptors (Homo sapiens, UniProt P29275) | < 1 µM |
| COc1ccc(C2CCCCC2)c2nc(NC(=O)c3ccnc(N4CCOCC4)c3)[nH]c12 | A2B receptors (Homo sapiens, UniProt P29275) | > 1 µM |

Any idea what its IC50 is? The compound is COc1ccc(-c2ccccc2)c2nc(NC(=O)c3ccc(CN)cc3)[nH]c12
< 1 µM

GET /values?readout=IC50&item= COc1ccc(-c2ccccc2)c2nc(NC(=O)c3cncn3C)[nH]c12
< 0.01 µM

What does the record list as IC50 for COCCn1cc(C(=O)Nc2nc3c(C4CCOCC4)ccc(OC)c3[nH]2)cn1 ?
< 0.1 µM

What does the data say about its IC50? Entry: COc1ccc(-c2cnn(C)c2)c2nc(NC(=O)c3ccc(CN4CCCC4=O)cc3)[nH]c12
< 1 µM

IC50 for COc1ccc(C2CCOCC2)c2nc(NC(=O)c3ccnc(N4CCC(C)(O)C4)c3)[nH]c12 (stereo not shown) ?
> 1 µM

Please give the measured IC50 for this compound: COc1ccc(-c2cccnc2)c2nc(NC(=O)c3cnn(C)c3)[nH]c12
< 0.01 µM
